- testedSystem: T1, biotinylated recombinant human IL-12Rβ2 (human, UniProt Q99665 24-622, random biotinylated)
- T1 construct: Recombinant protein produced in-house, biotinylated; also called hIL-12RB2; human IL-12RB2
- T1 sequence: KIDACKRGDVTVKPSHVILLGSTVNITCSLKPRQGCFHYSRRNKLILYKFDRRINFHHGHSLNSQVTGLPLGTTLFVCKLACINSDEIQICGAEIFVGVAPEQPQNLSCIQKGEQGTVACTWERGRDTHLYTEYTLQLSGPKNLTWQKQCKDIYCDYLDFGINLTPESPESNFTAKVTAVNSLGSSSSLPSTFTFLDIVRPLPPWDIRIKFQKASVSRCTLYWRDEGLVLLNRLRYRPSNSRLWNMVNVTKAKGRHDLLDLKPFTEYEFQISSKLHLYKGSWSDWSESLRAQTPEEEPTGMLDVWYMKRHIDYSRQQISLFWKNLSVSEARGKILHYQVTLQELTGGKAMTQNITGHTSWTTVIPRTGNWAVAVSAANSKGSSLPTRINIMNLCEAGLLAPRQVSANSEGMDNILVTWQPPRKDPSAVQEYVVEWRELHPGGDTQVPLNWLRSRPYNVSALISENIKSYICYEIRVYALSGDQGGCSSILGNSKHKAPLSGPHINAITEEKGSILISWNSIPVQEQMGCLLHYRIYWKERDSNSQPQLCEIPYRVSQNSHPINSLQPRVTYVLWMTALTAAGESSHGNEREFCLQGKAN
- assayName: ELISA, periplasmic extract on biotinylated hIL-12Rβ2, signal over control wells
Assign Satisfied whenever ELISA binding hIL-12RB2/control does not fall below 1 ratio; assign Not satisfied whenever it does.

IN: Would you say anti-IL-12Rβ2 VHH clone 21051 (VHH, not shown: small tags and cut ends, tested as periplasmic extract; also called 3CAHM40) VHH: QVQLQESGGGSVQAGGSLRLSCAVSGRTVSDYAMGWFRQAPGKEREFVAAMSSSETTVYPNSMKGRITISRDNAKNAVYLQLNALKPEDTAVYYCSMGPIATFQGLARQNEYHYWGQGTQVTVSS shows ELISA binding hIL-12RB2/control at minimum 1 ratio?
OUT: Satisfied

IN: Would you say anti-IL-12Rβ2 VHH clone 20539 (VHH, not shown: small tags and cut ends, tested as periplasmic extract; also called 2CAMS87) VHH: QVQLQESGGGLVQAGGSLRLSCAASGRTFSSYGMGWFRQAPGKEREFVAAISRGARNTDYADSVKGRFTISRDNAKNTAFLQMNSLNPEDTAVYFCAAAYTYSGSHYVTARSSDYHTWGQGTQVTVSS shows ELISA binding hIL-12RB2/control at minimum 1 ratio?
OUT: Satisfied

IN: Would you say anti-IL-12Rβ2 VHH clone 20538 (VHH, not shown: small tags and cut ends, tested as periplasmic extract; also called 2CAMS83) VHH: QVQLQESGGGLVQPGDSLRLSCAASGRTFSSYGMGWFRQAPGKEREFVAAISRGARNTDYADSVKGRFTISRDNAKNTAYLQMNSLNPEDTAVYFCAAAYTYSGSHYVTARSSDYPYWGQGTQVTVSS shows ELISA binding hIL-12RB2/control at minimum 1 ratio?
OUT: Satisfied

IN: Would you say anti-IL-12Rβ2 VHH clone 20542 (VHH, not shown: small tags and cut ends, tested as periplasmic extract; also called 3CAMS12) VHH: QVQLQESGGGLVQAGGSLRLSCAASGRTFSTYAMGWFRQAPGKEREFVAAISWSGGRTYYADSVKGRFTISRDNAKNTAYLQMSSLIPEDTAVYYCAADPADYTGSYYYQRSYDYWGQGTQVTVSS shows ELISA binding hIL-12RB2/control at minimum 1 ratio?
OUT: Not satisfied

IN: Would you say anti-IL-12Rβ2 VHH clone 21064 (VHH, not shown: small tags and cut ends, tested as periplasmic extract; also called 3CRHM200) VHH: QVQLQESGGGLVQPGGSLRLSCAASGRTFSNYAMAWFRQAPGTEREFVAGLSGSGGDTAFYDNSVMGRFTISRDSAKNTMWLQINNLKPEDTAVYYCAAATHVVVSYGLVRRRGTYDYWGQGTQVTVSS shows ELISA binding hIL-12RB2/control at minimum 1 ratio?
OUT: Satisfied

IN: Would you say anti-IL-12Rβ2 VHH clone 21058 (VHH, not shown: small tags and cut ends, tested as periplasmic extract; also called 3CRHM49) VHH: QVQLQESGGGLVQAGGSLRLSCAASGRTFSNYAMAWFRQAPGTEREFVAGLSGSGGDTAFYDNSVMGRFTISRDSAKNTMWLQINNLKPEDTAVYYCAAATHVVVSYGLVRRRGTYDYWGQGTQVTVSS shows ELISA binding hIL-12RB2/control at minimum 1 ratio?
OUT: Satisfied

IN: Would you say anti-IL-12Rβ2 VHH clone 21052 (VHH, not shown: small tags and cut ends, tested as periplasmic extract; also called 3CRHM12) VHH: QVQLQESGGGSVQAGGSLRLSCAVSGRTVSDYAMGWFRQAPGKEREFVAAMSSSETTVYPNSVKGRITISRDNAKNAVYLQMNALKPEDTAVYYCSMGPIVTFQGLARQNEYHYWGQGTQVTVSS shows ELISA binding hIL-12RB2/control at minimum 1 ratio?
OUT: Satisfied

IN: Would you say anti-IL-12Rβ2 VHH clone 20464 (VHH, not shown: small tags and cut ends, tested as periplasmic extract; also called 3CRM86) VHH: QVQLQESGGGLVQAGGSLRLFCTASGSIFAIDDMYWYRQAPGKQREFVAYITATNSANYLDSVNGRFTISRDNAKNSVYLQMNSLKPEDTAVYYCNAKQIVGFQIDEYWGQGTQVTVSS shows ELISA binding hIL-12RB2/control at minimum 1 ratio?
OUT: Satisfied

IN: Would you say anti-IL-12Rβ2 VHH clone 20495 (VHH, not shown: small tags and cut ends, tested as periplasmic extract; also called 2CAM69) VHH: QVQLQESGGGLVQAGGSLRLSCAASGRTFSMHGMGWFRQAPGKEREFVAAISRDARITDYADSVKGRFTISRDNAKNTAYLQMNSLNPEDTAVYFCAAAYTYSGSHYVTARSSDYNYWGQGTQVTVSS shows ELISA binding hIL-12RB2/control at minimum 1 ratio?
OUT: Not satisfied
